# Test system: P335 leukemia ip, BDF1 mice, survival T/C %
# assayExplanation: NCI In Vivo Anticancer Drug Screen. Data for tumor model P335 Leukemia (intraperitoneal) in B6D2F1 (BDF1) mice
# experimentalSetup: endpoint: mean survival time; dose: 125.0 mg/kg/injection; schedule: Q01DX Z (sc); vehicle: steriod suspending solution; higher = longer survival
Inconclusive results and toxic doses are left out.
readout: T/C

Record excerpt, results attached:
| compoundSmiles | result |
| --- | --- |
| C[C@]12CCC(=O)C=C1CC[C@@H]1[C@@H]2CC[C@@]2(C)[C@H]1CC[C@]2(C)O | 106 % of control |
| CC[C@H](c1ccc(O)cc1)[C@@H](CC)c1ccc(O)cc1 | 103 % of control |
| CC[C@@H](c1ccc(O)cc1)[C@@H](CC)c1ccc(O)cc1 | 96 % of control |

Now consider a different molecule.
Bench note: what T/C did C[C@]12CCC(=O)C[C@H]1CC[C@@H]1[C@@H]2CC[C@@]2(C)[C@H]1CC[C@]2(C)O show? 111 % of control

---

Measured T/C by item
# System: P335 leukemia ip, BDF1 mice, survival T/C %
# assayExplanation: NCI In Vivo Anticancer Drug Screen. Data for tumor model P335 Leukemia (intraperitoneal) in B6D2F1 (BDF1) mice
# experimentalSetup: endpoint: mean survival time; dose: 16.0 mg/kg/injection; schedule: Q01DX Z (ip); vehicle: carboxymethylcellulose (CMC); higher = longer survival
Inconclusive results and toxic doses are left out.

Record excerpt, results attached:
| molecule | readout | result |
| --- | --- | --- |
| NC(N)=Nc1nc2ccccc2o1 | T/C | 90 % of control |
| Clc1ncnc2nc[nH]c12 | T/C | 101 % of control |

Bench note: what T/C did CCOC(=O)NP(=O)(N1CC1(C)C)N1CC1(C)C (configuration not stated) show? 114 % of control

// next record O=CCC(O)C(O)C(O)CO (configuration not stated) 100 % of control

---

# Tested on: P335 leukemia ip, BDF1 mice, survival T/C %
# assayExplanation: NCI In Vivo Anticancer Drug Screen. Data for tumor model P335 Leukemia (intraperitoneal) in B6D2F1 (BDF1) mice
# experimentalSetup: endpoint: mean survival time; dose: 100.0 mg/kg/injection; schedule: Q01DX Z (ip); vehicle: carboxymethylcellulose (CMC); higher = longer survival
Toxic doses and inconclusive results are not listed.
readout: T/C

Record excerpt, results attached:
| compound | readout | result |
| --- | --- | --- |
| O=c1[nH]c(=O)n(C2CC(O)C(CO)O2)cc1F (centres undefined) | T/C | 111 % of control |
| O=C(Nc1ccc(C2=NCCN2)cc1)c1ccc(C(=O)Nc2ccc(C3=NCCN3)cc2)cc1 | T/C | 112 % of control |
| N#CCSc1ncnc2nc[nH]c12 | T/C | 93 % of control |

Bench note: what T/C did C[C@@H]1C[C@H]2CC[C@H](O2)[C@H](C)C(=O)O[C@@H](C)C[C@@H]2CC[C@@H](O2)[C@@H](C)C(=O)O[C@H](C)C[C@H]2CC[C@H](O2)[C@H](C)C(=O)O[C@@H](C)C[C@@H]2CC[C@@H](O2)[C@@H](C)C(=O)O1 show? 86 % of control

---

# System: P335 leukemia ip, BDF1 mice, survival T/C %
# assayExplanation: NCI In Vivo Anticancer Drug Screen. Data for tumor model P335 Leukemia (intraperitoneal) in B6D2F1 (BDF1) mice
# experimentalSetup: endpoint: mean survival time; dose: 8.0 mg/kg/injection; schedule: Q01DX Z (ip); vehicle: carboxymethylcellulose (CMC)
Toxic doses and inconclusive results are not listed. Rule for the calls: active = survival T/C of 150% or more; inactive = T/C below 125% in these data.
Pick one and only one: active, inactive

| compound | subjectOfTest | qualitativeLabel |
| --- | --- | --- |
| CCCCNc1ncnc2c1cnn2C | P335 leukemia ip, BDF1 mice, survival T/C % | inactive |
| c1ccc(CNc2ncnc3[nH]ncc23)cc1 | P335 leukemia ip, BDF1 mice, survival T/C % | inactive |
| O=C(Nc1ccc(C2=NCCCN2)cc1)c1ccc(NC(=O)c2ccc(C3=NCCCN3)cc2)cc1 | P335 leukemia ip, BDF1 mice, survival T/C % | active |
| CCOC(=O)NP(=O)(N1CC1(C)C)N1CC1(C)C (stereo unspecified) | P335 leukemia ip, BDF1 mice, survival T/C % | inactive |
| Clc1ncnc2nc[nH]c12 | P335 leukemia ip, BDF1 mice, survival T/C % | inactive |

Short answer needed: outcome of this test for NC(N)=Nc1nc2ccccc2o1 ? inactive

---

# Tested on: P335 leukemia ip, BDF1 mice, survival T/C %
# assayExplanation: NCI In Vivo Anticancer Drug Screen. Data for tumor model P335 Leukemia (intraperitoneal) in B6D2F1 (BDF1) mice
# experimentalSetup: endpoint: mean survival time; dose: 0.31 mg/kg/injection; schedule: Q01DX Z (ip); vehicle: carboxymethylcellulose (CMC); higher = longer survival
Inconclusive results and toxic doses are left out.
readout: T/C

| molecule | T/C |
| --- | --- |
| Nc1ncnc2c1ccn2C1OC(CO)C(O)C1O (centres undefined) | 95 % of control |
| N#[N+]c1cnc([O-])[nH]c1=O | 96 % of control |
| Nc1nc(=S)c2ncn(C3OC(CO)C(O)C3O)c2[nH]1 (centres undefined) | 117 % of control |

Now consider a different molecule.
Bench note: what T/C did CCN(CC)c1ccc2cc3ccc(=[N+](CC)CC)cc-3oc2c1 show? 87 % of control

---

Measured T/C by item
# System: P335 leukemia ip, BDF1 mice, survival T/C %
# assayExplanation: NCI In Vivo Anticancer Drug Screen. Data for tumor model P335 Leukemia (intraperitoneal) in B6D2F1 (BDF1) mice
# experimentalSetup: endpoint: mean survival time; dose: 0.25 mg/kg/injection; schedule: Q01DX Z (ip); vehicle: carboxymethylcellulose (CMC); higher = longer survival
Inconclusive results and toxic doses are left out.

Record excerpt, results attached:
| compound | T/C |
| --- | --- |
| Nc1nc(=S)c2[nH]cnc2[nH]1 | 95 % of control |
| NC(=O)N(CCCl)N=O | 114 % of control |
| Cn1cnc([N+](=O)[O-])c1Sc1nc(N)nc2nc[nH]c12 | 93 % of control |
| NC(=O)c1cn(C2OC(CO)C(O)C2O)c2ncnc(N)c12 (stereo not given) | 101 % of control |

Bench note: what T/C did N#Cc1cn(C2OC(CO)C(O)C2O)c2ncnc(N)c12 (stereo not given) show? 106 % of control

---

# Tested on: P335 leukemia ip, BDF1 mice, survival T/C %
# assayExplanation: NCI In Vivo Anticancer Drug Screen. Data for tumor model P335 Leukemia (intraperitoneal) in B6D2F1 (BDF1) mice
# experimentalSetup: endpoint: mean survival time; dose: 16.0 mg/kg/injection; schedule: Q01DX Z (ip); vehicle: carboxymethylcellulose (CMC); higher = longer survival
Toxic doses and inconclusive results are not listed.
readout: T/C

| compoundSmiles | T/C |
| --- | --- |
| c1ccc(CNc2ncnc3[nH]ncc23)cc1 | 95 % of control |
| CCCCNc1ncnc2c1cnn2C | 96 % of control |

Now consider a different molecule.
Bench note: what T/C did O=C(Nc1ccc(C2=NCCCN2)cc1)c1ccc(NC(=O)c2ccc(C3=NCCCN3)cc2)cc1 show? 108 % of control
